- TESTED ON: muscarinic receptors
- Assay type: binding, Hooded Lister rats
- ASSAY CONDITIONS: displacement of 0.27 nM 3H-QNB; rat cerebral cortex membranes; 37° C., 30 min; ^+ tested as the oxalate salt, ^++ tested as the hydrochloride salt

- MOLECULE: "Cc1ncc([C@@H]2CN3CC[C@@H]2C3)o1 (relative stereo)"
  TESTED ON: "muscarinic receptors"
  IC50 / µM: 7.5
- MOLECULE: "c1coc([C@@H]2CN3CC[C@@H]2C3)c1 (relative stereo)"
  TESTED ON: "muscarinic receptors"
  IC50 / µM: 7
- MOLECULE: "Cc1cc(C2CN3CCC2CC3)on1 (racemic)"
  TESTED ON: "muscarinic receptors"
  IC50 / µM: 4.3
- MOLECULE: "c1cc(C2CN3CCC2CC3)co1 (racemic)"
  TESTED ON: "muscarinic receptors"
  IC50 / µM: 19.5
- MOLECULE: "c1ncc(C2CN3CCC2CC3)o1 (racemic)"
  TESTED ON: "muscarinic receptors"
  IC50 / µM: 24
- MOLECULE: "Cc1ccc([C@@H]2CN3CC[C@@H]2C3)o1 (relative stereo)"
  TESTED ON: "muscarinic receptors"
  IC50 / µM: 3.2
- MOLECULE: "c1ncc(C2CN3CCC2C3)o1 (racemic)"
  TESTED ON: "muscarinic receptors"
  IC50 / µM: 29
- MOLECULE: "Cc1cc([C@@H]2CN3CC[C@@H]2C3)on1 (relative stereo)"
  TESTED ON: "muscarinic receptors"
  IC50 / µM: 7.5
- MOLECULE: "Cc1ncc(C2CN3CCC2CC3)o1 (racemic)"
  TESTED ON: "muscarinic receptors"
  IC50 / µM: 4.4
- MOLECULE: "c1cc(C2CN3CCC2CC3)on1 (racemic) [Example E1]"
  TESTED ON: "muscarinic receptors"
  IC50 / µM: 15.5
- MOLECULE: "CCc1ncc(C2CN3CCC2C3)o1 (racemic)"
  TESTED ON: "muscarinic receptors"
  IC50 / µM: 9.6
- MOLECULE: "c1cc([C@@H]2CN3CC[C@@H]2C3)on1 (relative stereo)"
  TESTED ON: "muscarinic receptors"
  IC50 / µM: 30.3

---

Listed here are molecules together with their documented pIC50.
- TESTED ON: muscarinic receptors
- ASSAY METHOD TEXT: Radio ligand binding: displacement of muscarinic agonist 3H-Oxotremorine-M (3H-OXO-M) in rat cerebral cortex
- Design: species or system Hooded Lister rats
- ASSAY CONDITIONS: displacement of 2 nM 3H-OXO-M; rat cerebral cortex membranes; 37° C., 30 min; 2 mM magnesium chloride; ^+ tested as the oxalate salt, ^++ tested as the hydrochloride salt
pIC50: −log10 of the molar value.

- MOLECULE: "Cc1cc(C2CN3CCC2CC3)on1 (racemic) [Example E6]"
  pIC50: 6.40
- MOLECULE: "Cc1cc([C@@H]2CN3CC[C@@H]2C3)on1 (relative stereo) [Example E9]"
  pIC50: 6.99
- MOLECULE: "Cc1ncc([C@@H]2CN3CC[C@@H]2C3)o1 (relative stereo) [Example E8A]"
  pIC50: 7.62
- MOLECULE: "c1ncc(C2CN3CCC2CC3)o1 (racemic) [Example E11]"
  pIC50: 6.32
- MOLECULE: "c1coc([C@@H]2CN3CC[C@@H]2C3)c1 (relative stereo) [Example E4]"
  pIC50: 7.06
- MOLECULE: "c1ncc(C2CN3CCC2C3)o1 (racemic) [Example E12]"
  pIC50: 6.82
- MOLECULE: "c1cc([C@@H]2CN3CC[C@@H]2C3)on1 (relative stereo) [Example E13]"
  pIC50: 6.76
- MOLECULE: "CCc1ncc(C2CN3CCC2C3)o1 (racemic) [Example E14]"
  pIC50: 6.10
- MOLECULE: "Cc1ccc([C@@H]2CN3CC[C@@H]2C3)o1 (relative stereo) [Example E5]"
  pIC50: 6.94
- MOLECULE: "c1cc(C2CN3CCC2CC3)co1 (racemic) [Example E10]"
  pIC50: 6.08
- MOLECULE: "c1cc(C2CN3CCC2CC3)on1 (racemic) [Example E1]"
  pIC50: 6.32
- MOLECULE: "Cc1ncc(C2CN3CCC2CC3)o1 (racemic) [Example E7]"
  pIC50: 6.98

Origin of measurements: patent US5541194A
